Data origin, for the record: patent US20250171550A1

# test system: T1, BCMA-Fc recombinant protein (human, UniProt Q02223 1-54)
# T1 construct: also called human BCMA protein; BCMA protein; not shown: Fc part
# T1 sequence (looked up): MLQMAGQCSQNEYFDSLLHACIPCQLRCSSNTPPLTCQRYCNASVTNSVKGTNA
# assay method text: SPR, Biacore 8K, CM5 chip; antibody captured by anti-human IgG (Fc), human BCMA protein as analyte (paragraph 147 describes the reverse format)

# binder, unit descriptor, koff
data = [
    ("single-domain antibody 48-11 (Fc fusion, Supernatant was used in flow cytometry, Protein A purified material in Biacore; not shown: human IgG1 Fc, ligated in series to the VHH (vector Lenti-hIgG1-Fc2)) QVQLVESGGGLVQAGGSLRLSCAASGHTPSNYAMGWFRQTPGKEREFVAAITWSAVTRDDAIPYYRTSVKGRFTISRDNAKNTVYLQMNSLKPEDTAVYYCAVDASLVMTPTPRYWGQGTQVTVSS", "s⁻¹", 0.0013),
    ("humanized single-domain antibody huD1 (Fc fusion, Humanized on DP-47 frameworks, original FR2 kept; not shown: fusion partner) QVQLVESGGGLVQPGGSLRLSCAASGRTSTTSVMGWFRQAPGKERRFVAAITRTDDRQNDGITYYADSVKGRFTISRDNSKNTLYLQMNSLRAEDTAVYYCAAHTSLVFTPDPRYWGQGTLVTVSS", "s⁻¹", 0.0141),
    ("humanized single-domain antibody hu4811FGLF (Fc fusion, FR1, FR3 and FR4 replaced and T45A, E49G, R50L in FR2; Fusion partner inferred; not shown: fusion partner) QVQLVESGGGLVQPGGSLRLSCAASGHTPSNYAMGWFRQAPGKGLEFVAAITWSAVTRDDAIPYYADSVKGRFTISRDNSKNTLYLQMNSLRAEDTAVYYCAVDASLVMTPTPRYWGQGTLVTVSS", "s⁻¹", 0.126),
    ("humanized single-domain antibody huD1FGLF (Fc fusion, FR1, FR3 and FR4 replaced and FR2 mutated; Fusion partner inferred; also called huDIFGLF; not shown: fusion partner) QVQLVESGGGLVQPGGSLRLSCAASGRTSTTSVMGWFRQAPGKGLEFVAAITRTDDRQNDGITYYADSVKGRFTISRDNSKNTLYLQMNSLRAEDTAVYYCAAHTSLVFTPDPRYWGQGTLVTVSS", "s⁻¹", 0.0579),
    ("humanized single-domain antibody hu4811 (Fc fusion, Humanized on DP-47 frameworks, original FR2 kept; Fusion partner inferred; not shown: fusion partner) QVQLVESGGGLVQPGGSLRLSCAASGHTPSNYAMGWFRQTPGKEREFVAAITWSAVTRDDAIPYYADSVKGRFTISRDNSKNTLYLQMNSLRAEDTAVYYCAVDASLVMTPTPRYWGQGTLVTVSS", "s⁻¹", 0.0698),
    ("single-domain antibody D1 (Fc fusion, not shown: human IgG1 Fc, ligated in series to the VHH (vector Lenti-hIgG1-Fc2)) QVQLVESGGGLVQAGGSLRLSCVASGRTSTTSVMGWFRQAPGKERRFVAAITRTDDRQNDGITYYGESVKGRFTISRDNDKNTVYLQMNSLKPEDTAVYYCAAHTSLVFTPDPRYWGQGTPVTVPS", "s⁻¹", 0.00212),
]
